- Test system: A-549
- assayOverview: cells
- testParameters: Homo sapiens, A549, 48 h, read-out: TGI A549
measureName: IC (TGI) (µM)
# unit: µM | format: bare number

// known answers, use as guide
compound: C=CCOc1c(C)c2c(c3c1CC1[C@H]4c5c(cc(C)c(OC)c5O)C[C@@H]([C@H](C#N)N1[C@H]3CO[Si](c1ccccc1)(c1ccccc1)C(C)(C)C)N4C)OCO2 (stereo partly drawn)
IC (TGI) / µM: 13
--
compound: C=CCN1[C@@H]2c3c(cc(C)c(OC)c3O)C[C@H]1[C@H](C#N)N1C2[C@@H]2SCC(NC(=O)CCCCCCCCCCCCCCC)C(=O)OC[C@H]1c1c3c(c(C)c(OC(C)=O)c12)OCO3 (stereo partly drawn)
IC (TGI) / µM: 11.6

Below: the item to evaluate.
Looking up C=CCN1[C@@H]2c3c(cc(C)c(OC)c3OC(=O)/C=C/c3ccccc3)C[C@H]1[C@H](C#N)N1C2[C@@H]2SCC(NC(=O)C(F)(F)F)C(=O)OC[C@H]1c1c3c(c(C)c(OC(C)=O)c12)OCO3 (stereo partly drawn) , I found its IC (TGI) recorded as 11.4
